Biological target: Estrogen receptor (Homo sapiens)
Assay: qHTS assay to identify small molecule agonists of the estrogen receptor alpha (ER-alpha) signaling pathway (AID 743075);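 also: HEK293 GripTite cells with ER-alpha and UAS-driven beta-lactamase reporter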
Settings: HEK293 ER-alpha-UAS-bla, beta-lactamase FRET ratio, 18 h; series mostly up to 70.1 µM
Activity calls are given as the source filed them. Calls follow the shape of the full dose curve.
Labels: 1 (yes) = active, 0 (no) = inactive

> print(dat)
                                    compound                    assayed.system  class.assignment
 1  CCOP(=S)(NC(C)C)Oc1ccccc1C(=O)OC(C)C (stereo not drawn)  Estrogen receptor (Homo sapiens)            0 (no)
 2  COC(=O)C(C)N(C(=O)c1ccco1)c1c(C)cccc1C (stereo not drawn)  Estrogen receptor (Homo sapiens)            0 (no)
 3  COc1cnc(OC)n2nc(NS(=O)(=O)c3c(OCC(F)F)cccc3C(F)(F)F)nc12  Estrogen receptor (Homo sapiens)            0 (no)
 4                        ClC(Cl)C(Cl)(Cl)Cl  Estrogen receptor (Homo sapiens)            0 (no)
 5        O=C(O)CCCCCCNC1c2ccccc2CCc2ccccc21  Estrogen receptor (Homo sapiens)            0 (no)
 6  [F][Sn]([c]1ccccc1)([c]1ccccc1)[c]1ccccc1  Estrogen receptor (Homo sapiens)           1 (yes)
 7     COP(=S)(OC)Oc1ccc([N+](=O)[O-])c(C)c1  Estrogen receptor (Homo sapiens)            0 (no)
 8                            BrCC(Br)(Br)Br  Estrogen receptor (Homo sapiens)            0 (no)
 9                        CCCCCCCc1ccc(O)cc1  Estrogen receptor (Homo sapiens)            0 (no)
10  CC(Cc1ccc(OCC(=O)O)cc1)NCC(O)c1csc(C(F)(F)F)n1 (stereo not drawn)  Estrogen receptor (Homo sapiens)            0 (no)
11                    c1ccc(N=NNc2ccccc2)cc1  Estrogen receptor (Homo sapiens)            0 (no)
12                          O=C(Cl)c1ccccc1F  Estrogen receptor (Homo sapiens)            0 (no)
13                   Oc1cc(Cl)c(Cl)c(Cl)c1Cl  Estrogen receptor (Homo sapiens)            0 (no)
14  CC(C)NCC(O)c1ccccc1Cl (stereo not drawn)  Estrogen receptor (Homo sapiens)            0 (no)
15         N#Cc1c[nH]cc1-c1cccc2c1OC(F)(F)O2  Estrogen receptor (Homo sapiens)           1 (yes)
16                             S=C=Nc1ccccc1  Estrogen receptor (Homo sapiens)            0 (no)
17  CCN(CC)C(=O)N[C@@H]1C=C2c3cccc4[nH]cc(c34)C[C@@H]2N(C)C1  Estrogen receptor (Homo sapiens)            0 (no)
18  CC1(C)C(C=C(Cl)Cl)C1C(=O)OC(C#N)c1ccc(F)c(Oc2ccccc2)c1 (stereo not drawn)  Estrogen receptor (Homo sapiens)            0 (no)
19                    Nc1ccc(N=Nc2ccccc2)cc1  Estrogen receptor (Homo sapiens)            0 (no)
20  CC1(C)[C@H](/C=C2\CCSC2=O)[C@@H]1C(=O)OCc1coc(Cc2ccccc2)c1  Estrogen receptor (Homo sapiens)            0 (no)
21                 Clc1ccc(C(Cl)(Cl)Cl)cc1Cl  Estrogen receptor (Homo sapiens)            0 (no)
22  Cc1cc2c3c(c1)C(c1ccccc1)=N[C@@H](NC(=O)c1ccncc1)C(=O)N3CC2  Estrogen receptor (Homo sapiens)            0 (no)
23  O=S1(=O)OCC2C(CO1)C1(Cl)C(Cl)=C(Cl)C2(Cl)C1(Cl)Cl (stereo not drawn)  Estrogen receptor (Homo sapiens)            0 (no)
24                         Oc1ccc(Cl)c(Cl)c1  Estrogen receptor (Homo sapiens)           1 (yes)
25        Clc1ccc(C(c2ccc(Cl)cc2)C(Cl)Cl)cc1  Estrogen receptor (Homo sapiens)            0 (no)
26             O=[N+]([O-])c1ccccc1-c1ccccc1  Estrogen receptor (Homo sapiens)            0 (no)
27  CC(C)c1c(CN(C)C(C)Cc2ccccc2)n(C)n(-c2ccccc2)c1=O (stereo not drawn)  Estrogen receptor (Homo sapiens)            0 (no)
28               CCCCCCCCCCCCCCn1cc[n+](C)c1  Estrogen receptor (Homo sapiens)            0 (no)
29  CCN(CC)CCN1C(=O)CN=C(c2ccccc2F)c2cc(Cl)ccc21  Estrogen receptor (Homo sapiens)            0 (no)
30            COP(=S)(OC)Oc1nc(Cl)c(Cl)cc1Cl  Estrogen receptor (Homo sapiens)            0 (no)
31                 O=[N+]([O-])c1ccc(CCl)cc1  Estrogen receptor (Homo sapiens)            0 (no)
32                    CN(C)C(=S)SSC(=S)N(C)C  Estrogen receptor (Homo sapiens)            0 (no)
33                         Oc1cc(Cl)cc(Cl)c1  Estrogen receptor (Homo sapiens)            0 (no)
34           Brc1ccc(Oc2ccc(Br)cc2Br)c(Br)c1  Estrogen receptor (Homo sapiens)            0 (no)
35  Fc1ccc(C(OCCN2CCN(CCCc3ccccc3)CC2)c2ccc(F)cc2)cc1  Estrogen receptor (Homo sapiens)            0 (no)
36  CCNc1nc(NC(C)C(C)C)nc(SC)n1 (stereo not drawn)  Estrogen receptor (Homo sapiens)            0 (no)
37  CCN1CCC2(CC1)COc1cc3c(cc12)N(C(=O)c1ccc(-c2ccc(-c4nnc(C)o4)cc2C)cc1)CC3  Estrogen receptor (Homo sapiens)            0 (no)
38  CCC[CH2][Sn]([CH2]CCC)([O]C(C)=O)[O]C(C)=O  Estrogen receptor (Homo sapiens)            0 (no)
39        CCOP(=S)(OCC)Oc1cc(C)nc(N(CC)CC)n1  Estrogen receptor (Homo sapiens)            0 (no)
40                COc1c2c(cc3c1OCO3)CCN(C)C2  Estrogen receptor (Homo sapiens)            0 (no)
41  O=[N+]([O-])c1cc(C(F)(F)F)c(Cl)c([N+](=O)[O-])c1Nc1ncc(C(F)(F)F)cc1Cl  Estrogen receptor (Homo sapiens)           1 (yes)
42  CC(C)C(Br)C(=O)NC(N)=O (stereo not drawn)  Estrogen receptor (Homo sapiens)            0 (no)
43                           S=C=NCCc1ccccc1  Estrogen receptor (Homo sapiens)            0 (no)

---

Biological target: Cytochrome P450 1A2 (Homo sapiens) (UniProt P05177)
Sequence (P05177 whole entry, looked up): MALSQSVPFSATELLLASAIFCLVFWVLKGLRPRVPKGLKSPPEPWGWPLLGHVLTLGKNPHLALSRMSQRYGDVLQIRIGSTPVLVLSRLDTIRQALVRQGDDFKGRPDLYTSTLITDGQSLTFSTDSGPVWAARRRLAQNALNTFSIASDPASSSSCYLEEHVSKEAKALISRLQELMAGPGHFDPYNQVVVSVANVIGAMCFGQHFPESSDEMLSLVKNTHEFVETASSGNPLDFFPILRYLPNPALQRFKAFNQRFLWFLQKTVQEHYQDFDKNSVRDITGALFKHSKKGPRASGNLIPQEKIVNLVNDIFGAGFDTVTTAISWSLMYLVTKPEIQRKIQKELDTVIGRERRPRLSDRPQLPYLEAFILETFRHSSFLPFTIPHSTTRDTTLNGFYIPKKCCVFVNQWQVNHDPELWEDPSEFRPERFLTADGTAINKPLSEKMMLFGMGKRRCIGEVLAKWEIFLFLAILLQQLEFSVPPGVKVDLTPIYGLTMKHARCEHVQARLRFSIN
Test: Cytochrome P450 Family 1 Subfamily A Member 2 (CYP1A2) small molecule antagonists: luciferase reporter qHTS assay (AID 1671199); also: nearly all actives have a fitted effect of over 50% in size
Conditions: P450-Glo CYP1A2 enzyme, luciferin luminescence, 1 h; series mostly up to 115 µM
Inconclusive results are not listed. Active and inactive are the calls of the source. Calls come from the whole dose curve; as a rule, active = well fitted inhibition curve with a large enough effect in the repeat runs; inconclusive = weak or mixed curves; inactive = no such curve, though single readings can be large or run the other way.
Labels: active, inactive

> print(dat)
                                chem.smiles  class.assignment
1  CC1=C2C[C@H]3[C@@H](CC=C4C[C@@H](O)CC[C@@]43C)[C@@H]2CC[C@]12O[C@@H]1C[C@H](C)CN[C@H]1[C@H]2C          inactive
2  O=C(Nc1ccc(F)cc1F)c1cccnc1Oc1cccc(C(F)(F)F)c1            active
3  CCOC(=O)CCN(SN(C)C(=O)Oc1cccc2c1OC(C)(C)C2)C(C)C            active
4                   CN(C)CCc1c[nH]c2ccccc12          inactive
5          CCOP(=O)(OCC)Oc1cc(C)nc(C(C)C)n1            active

---

Molecular target: Nuclear receptor subfamily 1 group I member 3 (Homo sapiens) (UniProt Q14994)
Sequence (Q14994 whole entry, looked up): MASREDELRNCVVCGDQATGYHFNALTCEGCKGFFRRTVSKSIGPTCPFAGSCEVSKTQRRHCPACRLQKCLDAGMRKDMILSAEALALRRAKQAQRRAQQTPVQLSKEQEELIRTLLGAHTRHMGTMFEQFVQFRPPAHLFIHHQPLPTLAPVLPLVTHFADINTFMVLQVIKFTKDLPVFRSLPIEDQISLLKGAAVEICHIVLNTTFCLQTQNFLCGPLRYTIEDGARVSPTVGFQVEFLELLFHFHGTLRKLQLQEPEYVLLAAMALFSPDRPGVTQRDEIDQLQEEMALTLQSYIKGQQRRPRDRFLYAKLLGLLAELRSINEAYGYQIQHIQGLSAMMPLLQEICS
Test: qHTS assay to identify small molecule antagonists of the constitutive androstane receptor (CAR) signaling pathway (AID 1224838);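 also: HepG2 cells stably expressing hCAR with CYP2B6 luciferase reporter stimulated by CITCO; nearly all actives have a fitted effect of over 40% in size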
Conditions: HepG2-CYP2B6-hCAR luciferase, CITCO-stimulated, 24 h; series mostly up to 92.4 µM
Results filed as inconclusive are left out. Activity calls are given as the source filed them. Calls follow the shape of the dose curve; as a rule, active = well fitted inhibition curve with a large enough effect in the repeat runs; inconclusive = weak or mixed curves, or effect the other way; inactive = no such curve, though single readings can be large or run the other way.
Labels: active, inactive

> print(dat)
                                    compound  class.assignment
 1               CCC(C)Br (stereo not drawn)          inactive
 2  CC(C)C(Nc1ccc(C(F)(F)F)cc1Cl)C(=O)OC(C#N)c1cccc(Oc2ccccc2)c1 (stereo not drawn)          inactive
 3  CCOP(=S)(OCC)SC(CCl)N1C(=O)c2ccccc2C1=O (stereo not drawn)          inactive
 4                 CC1CN1 (stereo not drawn)          inactive
 5                    c1ccc(N=NNc2ccccc2)cc1          inactive
 6         Clc1ccc(C2(Cn3cncn3)OCCO2)c(Cl)c1          inactive
 7                        [Cl][Hg][c]1ccccc1            active
 8       COc1ccc2[nH]cc(CCN(C(C)C)C(C)C)c2c1          inactive
 9                       O=[N+]([O-])C(Br)Br          inactive
10  CC1=C2C[C@H]3[C@@H](CC=C4C[C@@H](O)CC[C@@]43C)[C@@H]2CC[C@]12O[C@@H]1C[C@H](C)CN[C@H]1[C@H]2C          inactive
11                      CNC(=O)CSP(=O)(OC)OC          inactive
12  Cc1c([N+](=O)[O-])cc2c(c1[N+](=O)[O-])C(C)(C)CC2(C)C          inactive
13                          Nc1nc(N)nc(Cl)n1          inactive
